- study.system: T1, cynomolgus monkey BCMA (cynomolgus monkey, UniProt A0A2K5UD97 1-53)
- T1 construct: Soluble analyte in SPR; construct not described; also called cyBCMA; Cyno BCMA
- T1 sequence (A0A2K5UD97 entry or part of it): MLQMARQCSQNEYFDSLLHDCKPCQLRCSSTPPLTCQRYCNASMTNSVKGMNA
- assay.name: SPR, IgG on chip, cyBCMA analyte
attribute.measured: Kd (nM)
The figure you give is taken to be in nM; do not add the unit.

Input: Any idea what its Kd is? The binder is A02_Rd4_6nM_C26 (antibody, V domains shown, IgG) VH: EVQLLESGGGLVQPGGSLRLSCAASGFTFSSYAMNWVRQAPGKGLEWVSAISDSGGSTYYADSVKGRFTISRDNSKNTLYLQMNSLRAEDTAVYYCARYWPMSLWGQGTLVTVSS VL: EIVLTQSPGTLSLSPGERATLSCRASQSVSSLYLAWYQQKPGQAPRLLMYDASIRATGIPDRFSGSGSGTDFTLTISRLEPEDFAVYYCQQYQVWPLTFGQGTKVEIK
Output: 0.203

Input: # query: Kd of entry A02_Rd4_6nM_C07 (antibody, V domains shown, IgG) VH: EVQLLESGGGLVQPGGSLRLSCAASGFTFSSYAMNWVRQAPGKGLEWVSAIGGSGGSLPYADSVKGRFTISRDNSKNTLYLQMNSLRAEDTAVYYCARYWPMDSWGQGTLVTVSS VL: EIVLTQSPGTLSLSPGERATLSCRASQSVSPYYLAWYQQKPGQAPRLLMYDASIRATGIPDRFSGSGSGTDFTLTISRLEPEDFAVYYCQQYERWPLTFGQGTKVEIK
Output: 1.14
